Reference source: ChEMBL document CHEMBL1131032

targetOfAssay: Endothelin-1 receptor (Rattus norvegicus, UniProt P26684)
Sequence (P26684 whole entry): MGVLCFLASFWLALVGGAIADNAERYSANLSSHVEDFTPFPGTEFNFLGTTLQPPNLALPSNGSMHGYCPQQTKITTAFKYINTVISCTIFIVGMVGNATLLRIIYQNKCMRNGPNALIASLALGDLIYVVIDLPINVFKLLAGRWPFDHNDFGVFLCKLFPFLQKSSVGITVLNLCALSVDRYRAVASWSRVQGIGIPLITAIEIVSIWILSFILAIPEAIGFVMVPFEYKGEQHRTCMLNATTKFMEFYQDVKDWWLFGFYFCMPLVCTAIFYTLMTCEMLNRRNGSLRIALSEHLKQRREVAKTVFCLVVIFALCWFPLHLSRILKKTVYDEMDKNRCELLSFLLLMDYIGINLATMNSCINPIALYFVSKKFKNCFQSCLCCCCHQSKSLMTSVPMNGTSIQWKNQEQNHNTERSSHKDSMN
protocolNotes: In vitro inhibition of [125I]ET1 binding to rat A10 cell Endothelin A receptor.
Where a SMILES comes first, the peptide text is derived from it. [ ]: non-standard residue; d: D form.
propertyLabel: IC50 (nM)
Field: numeric (nM). Do not append units.

molecule: Cc1ccccc1[C@@H](CCC(=O)O)Oc1cc(OCc2ccc3c(c2)OCO3)ccc1C#N
unitsSymbol: nM
IC50: 69

Query: Record request: IC50 value, item Cc1ccccc1[C@@H](CCC(=O)O)Oc1cc(OCc2ccncc2)ccc1C#N
Reply: 20

Query: Input Cc1ccccc1C(CCC(=O)O)Oc1cc(OCc2ccsc2)ccc1-c1ccccn1 (centres undefined)
Reply: 40

Query: Input Cc1ccccc1C(CCC(=O)O)C(=O)c1cccc(OCc2ccsc2)c1 (centres undefined)
Reply: 110

Query: Input CC(C)C[C@@H]1NC(=O)[C@@H](C(C)C)NC(=O)[C@@H]2CCCN2C(=O)[C@@H](CC(=O)O)NC(=O)[C@@H](Cc2c[nH]c3ccccc23)NC1=O [BQ-123] (cyclo(L[dW][dD]P[dV]))
Reply: 14

Query: Input Cc1ccccc1C(CCC(=O)O)Oc1cc(OCc2ccsc2)ccc1-c1ncco1 (centres undefined)
Reply: 20

Query: Input Cc1ccccc1C(CCC(=O)O)Oc1cc(OCc2ccsc2)ccc1-c1ncc[nH]1 (centres undefined)
Reply: 163

Query: Input CC(=O)c1ccc(OCc2ccsc2)cc1OC(CCC(=O)O)c1ccccc1C (centres undefined)
Reply: 26

Query: Input Cc1ccccc1C(CCC(=O)O)Oc1cc(OCc2ccsc2)ccc1-c1cc[nH]n1 (centres undefined)
Reply: 20

###

Species: Rattus norvegicus
protocolNotes: Antagonism of ET-1 mediated contraction of isolated de-endothelialized rat aortic rings
Format: functional, Aorta
propertyLabel: pKB

Answered cases to consult:
molecule: Cc1ccccc1[C@@H](CCC(=O)O)Oc1cc(OCc2cnsc2)ccc1C#N
pKB: 7.3
//
molecule: Cc1ccccc1C(CCC(=O)O)C(=O)c1cccc(OCc2ccsc2)c1 (stereo not given)
pKB: 5.7
//
molecule: Cc1ccccc1[C@@H](CCC(=O)O)Oc1cc(OCc2ccsc2)ccc1C#N
pKB: 7.4
//
molecule: Cc1ccccc1[C@@H](CCC(=O)O)Oc1cc(OCc2ccncc2)ccc1C#N
pKB: 7.1

Would you kindly look at the next entry?
Query: Record request: pKB value, item Cc1ccccc1C(CCC(=O)O)Oc1cc(OCc2ccsc2)ccc1-c1cc(C(=O)O)[nH]n1 (stereo not given)
Reply: 7.3

###

targetOfAssay: Endothelin-1 receptor (Rattus norvegicus, UniProt P26684)
protocolNotes: In vitro inhibition of [125I]ET1 binding to rat A10 cell Endothelin A receptor.
propertyLabel: IC50 (nM)
Field: numeric (nM). Do not append units.

Answered cases to consult:
compound: Cc1ccccc1[C@@H](CCC(=O)O)Oc1cc(OCc2cnsc2)ccc1C#N
observedValue: 7
//
compound: O=C(O)c1cc(-c2ccc(OCc3ccccc3)cc2OCc2ccccc2)n[nH]1
observedValue: 1000

Would you kindly look at the next entry?
Query: Record request: IC50 value, item Cc1ccccc1C(CCC(=O)O)Oc1cc(OCc2ccsc2)ccc1-c1cc(C(=O)O)[nH]n1 (stereo not drawn)
Reply: 7
